Target system: UniProtKB P43405
Assay details: radiometric filter-binding kinase assay, Kinase HotSpot
Experimental setup: compound 0.5 µM; ATP 10 µM

Structure smiles	Target system	residual activity [%]
O=C1NC(=O)C(c2cn(CCCO)c3ncccc23)=C1c1cnccn1	UniProtKB P43405	60
O=C1NC(=O)C(c2c[nH]c3ccccc23)=C1c1c[nH]c2ccccc12	UniProtKB P43405	103
CC(C)[C@H](CO)Nc1nc(Nc2cc(N)cc(Cl)c2)c2ncn(C(C)C)c2n1	UniProtKB P43405	81.1
O=C(Nc1cccc(Nc2cc(Nc3cccc(C(F)(F)F)c3)ncn2)c1)C1CC1	UniProtKB P43405	94.9
Nc1nnc2[nH]c3ccccc3nc1-2	UniProtKB P43405	100
COc1ccc(CNC(=O)Nc2ncc([N+](=O)[O-])s2)cc1	UniProtKB P43405	98.6
Cn1sc(=O)n(Cc2ccccc2)c1=O	UniProtKB P43405	92.2
CN([C@@H](Cc1ccc(OS(=O)(=O)c2cccc3cnccc23)cc1)C(=O)N1CCN(c2ccccc2)CC1)S(=O)(=O)c1cccc2cnccc12	UniProtKB P43405	98.7
O=C(O)/C=C/c1cc(Br)c(Br)c(Br)c1Br	UniProtKB P43405	102
O=C(CCCc1ccc(-c2ccccc2F)cc1)Nc1ccc(O)cc1	UniProtKB P43405	101

###

Target system: STK16 (human) (UniProt O75716)
Sequence (O75716 whole entry, looked up): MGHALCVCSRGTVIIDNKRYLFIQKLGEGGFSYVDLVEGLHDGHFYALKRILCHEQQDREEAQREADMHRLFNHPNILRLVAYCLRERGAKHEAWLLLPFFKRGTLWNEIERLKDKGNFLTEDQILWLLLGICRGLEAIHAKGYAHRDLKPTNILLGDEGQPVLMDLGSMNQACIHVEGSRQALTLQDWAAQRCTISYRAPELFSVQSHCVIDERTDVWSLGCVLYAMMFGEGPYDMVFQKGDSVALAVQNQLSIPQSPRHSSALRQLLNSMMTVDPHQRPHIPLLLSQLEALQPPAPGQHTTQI
Assay details: radiometric filter-binding kinase assay, Kinase HotSpot
Experimental setup: compound 0.5 µM; ATP 10 µM

Structure smiles	residual activity / %
O=C(O)/C=C/c1cc(Br)c(Br)c(Br)c1Br	90.4
Cn1sc(=O)n(Cc2ccccc2)c1=O	105
CN(C)C[C@H]1CCn2c(c(C3=C(c4cn(C)c5ccccc45)C(=O)NC3=O)c3ccccc32)C1	109
O=C1NC(=O)C(c2cn(CCCO)c3ncccc23)=C1c1cnccn1	90.3

###

Target system: CHEK1 (human)
Assay details: radiometric filter-binding kinase assay, Kinase HotSpot
Experimental setup: compound 0.5 µM; ATP 10 µM
Measure name: residual activity (%)

Structure smiles	Target system	Unit label	Val
COc1ccc(OC)c2c(=S)c3ccccc3[nH]c12	CHEK1 (human)	%	92.7
O=C1NC(=O)/C(=C\c2ccc3nccnc3c2)S1	CHEK1 (human)	%	99.4
O=C1NC(=O)C(c2c[nH]c3ccccc23)=C1c1c[nH]c2ccccc12	CHEK1 (human)	%	93.1
Cn1nc2c3c(cccc31)C(=O)c1ccccc1-2	CHEK1 (human)	%	93.7
O=C(CCCc1ccc(-c2ccccc2F)cc1)Nc1ccc(O)cc1	CHEK1 (human)	%	98.8

###

Target system: BTK (human) (UniProt Q06187)
Sequence (Q06187 whole entry, looked up): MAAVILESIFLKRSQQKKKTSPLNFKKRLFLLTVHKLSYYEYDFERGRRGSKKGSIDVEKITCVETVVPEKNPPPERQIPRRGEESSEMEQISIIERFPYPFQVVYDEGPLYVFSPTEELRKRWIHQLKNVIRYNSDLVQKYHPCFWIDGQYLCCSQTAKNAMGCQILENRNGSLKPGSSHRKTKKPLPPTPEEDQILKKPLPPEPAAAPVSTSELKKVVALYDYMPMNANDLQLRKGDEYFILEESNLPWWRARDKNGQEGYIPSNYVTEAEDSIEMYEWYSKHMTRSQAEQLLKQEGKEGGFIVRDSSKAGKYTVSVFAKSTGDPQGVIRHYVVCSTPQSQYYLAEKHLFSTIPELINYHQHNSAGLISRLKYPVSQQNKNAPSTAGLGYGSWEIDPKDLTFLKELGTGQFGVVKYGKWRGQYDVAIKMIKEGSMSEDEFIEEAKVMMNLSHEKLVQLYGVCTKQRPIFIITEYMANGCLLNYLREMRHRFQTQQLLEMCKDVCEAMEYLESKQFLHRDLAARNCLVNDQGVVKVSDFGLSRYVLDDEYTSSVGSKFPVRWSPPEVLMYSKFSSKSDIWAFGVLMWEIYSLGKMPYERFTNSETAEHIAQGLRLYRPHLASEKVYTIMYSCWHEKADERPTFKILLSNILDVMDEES
Assay details: radiometric filter-binding kinase assay, Kinase HotSpot
Experimental setup: compound 0.5 µM; ATP 10 µM
As shown below, each of these compounds has a reported residual activity value.
Measure name: residual activity (%)

Compound	Val
CC(C)c1nn(-c2c(Cl)cccc2Cl)c2nc(Cc3ccc(OCCO)cc3)nc(O)c12	100
COc1cc2ncnc(N3CCN(C(=O)Nc4ccc(Oc5ccccc5)cc4)CC3)c2cc1OC	87.8
CN(C)C[C@H]1CCn2c(c(C3=C(c4cn(C)c5ccccc45)C(=O)NC3=O)c3ccccc32)C1	103
CC(=O)O/N=C1\C(=C2\C(=O)Nc3cc(Br)ccc32)Nc2ccccc21	27.3
Cc1nc2cc3nc(-c4cccs4)cnc3cc2n1C	101
O=C1Nc2ccccc2/C1=C1/Nc2ccccc2/C1=N\OCCC(O)CO (stereo unspecified)	24.1
O=C(CCCc1ccc(-c2ccccc2F)cc1)Nc1ccc(O)cc1	98.2
Cn1nc2c3c(cccc31)C(=O)c1ccccc1-2	89.5
CN([C@@H](Cc1ccc(OS(=O)(=O)c2cccc3cnccc23)cc1)C(=O)N1CCN(c2ccccc2)CC1)S(=O)(=O)c1cccc2cnccc12	97.1
O=C(O)/C=C/c1cc(Br)c(Br)c(Br)c1Br	97.8
COc1cc2ncc(-c3ccccc3)nc2cc1OC	98
CCn1cnc2c(Nc3cccc(Cl)c3)nc(N[C@@H]3CCCC[C@@H]3N)nc21	82.5
Nc1nccc(-c2c(-c3ccc(F)cc3)ncn2C2CCNCC2)n1	100
COc1ccc(OC)c2c(=S)c3ccccc3[nH]c12	102
Nc1nnc2[nH]c3ccccc3nc1-2	93.9
O=C1NC(=O)/C(=C\c2ccc3nccnc3c2)S1	104
O=C1Nc2ccccc2/C1=C1\Nc2ccccc2\C1=N/O	59.3
CCN(CC)CCCCN1c2ccccc2Oc2ccc(Cl)cc21	99.2
CC(C)[C@H](CO)Nc1nc(Nc2cc(N)cc(Cl)c2)c2ncn(C(C)C)c2n1	33
O=C(Nc1cccc(Nc2cc(Nc3cccc(C(F)(F)F)c3)ncn2)c1)C1CC1	101
O=C1Cc2c([nH]c3ccc(Br)cc23)-c2ccccc2N1	98
